Field: SPOT peptide array binding signal intensity. Provide a value for each of the binders that follow.
# system-name: AgNbp2
# assay-name: SPOT peptide array binding signal intensity (averaged, normalized) (arbitrary units (background-subtracted, floor 0; scale differs between SH3 domains)); higher = stronger binding of the SH3 domain to the peptide

Reported SPOT peptide array binding signal intensity of PSPSSSPPPIPKTAN : ≤ 0

Reported SPOT peptide array binding signal intensity of DTFLPPPPPPPSNFE : ≤ 0

Reported SPOT peptide array binding signal intensity of VLRFLGFPLPIFEKG : ≤ 0
